# SYSTEM UNDER TEST: TYK2 (Homo sapiens, UniProt P29597)
# Sequence (P29597 871-1187 limits assumed): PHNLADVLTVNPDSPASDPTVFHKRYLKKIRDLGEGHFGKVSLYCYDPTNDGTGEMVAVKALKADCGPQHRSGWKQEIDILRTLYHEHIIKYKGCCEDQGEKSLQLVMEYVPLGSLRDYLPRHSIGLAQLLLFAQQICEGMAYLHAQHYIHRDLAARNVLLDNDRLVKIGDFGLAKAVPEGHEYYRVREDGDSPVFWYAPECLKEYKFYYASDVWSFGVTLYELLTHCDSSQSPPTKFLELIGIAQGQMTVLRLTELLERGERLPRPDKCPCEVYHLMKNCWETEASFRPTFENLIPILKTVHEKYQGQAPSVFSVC
# PROTOCOL TEXT: TYK2 kinase ADP-Glo assay (Example 60)
pIC50: −log10 of the molar value.
EXPERIMENTAL ENDPOINT: pIC50

Known results for molecules:
MOLECULE	VALUE
CCc1cc(O)c(F)cc1-c1ccc2c(-c3nc4c([nH]3)CN(CC3CC3)C4)n[nH]c2c1 [MDI-208]	8.03
CCc1cc(O)c(F)cc1-c1ccc2c(-c3nc4c([nH]3)CN(C(=O)CC3CC3)C4)n[nH]c2c1 [MDI-229]	8.33
CCc1cc(O)c(F)cc1-c1ccc2c(-c3nc4c([nH]3)CN(C(=O)N3CC5(CNC5)C3)C4)n[nH]c2c1 [MDI-261]	8.94
CCc1cc(O)c(F)cc1-c1ccc2c(-c3nc4c([nH]3)CN(C(=O)NCCC#N)C4)n[nH]c2c1 [MDI-258]	8.20
CCc1cc(O)c(F)cc1-c1ccc2c(-c3nc4c([nH]3)CN(C(=O)N3CCC3)C4)n[nH]c2c1 [MDI-232]	8.65

A: CCc1cc(O)c(F)cc1-c1ccc2c(-c3nc4c([nH]3)CN(C(=O)N3CCN(C)CC3)C4)n[nH]c2c1 [MDI-235]
B: CCc1cc(O)c(F)cc1-c1ccc2c(-c3nc4c([nH]3)CN(C(=O)[C@@H]3CCCN3)C4)n[nH]c2c1 [MDI-262]
Field: lower recorded pIC50 (choose A or B ) Give the label of your selection.
B
(B: 8.59, A: 9.85)

====

# SYSTEM UNDER TEST: JAK2 (Homo sapiens)
# Sequence (O60674 826-1132 limits assumed): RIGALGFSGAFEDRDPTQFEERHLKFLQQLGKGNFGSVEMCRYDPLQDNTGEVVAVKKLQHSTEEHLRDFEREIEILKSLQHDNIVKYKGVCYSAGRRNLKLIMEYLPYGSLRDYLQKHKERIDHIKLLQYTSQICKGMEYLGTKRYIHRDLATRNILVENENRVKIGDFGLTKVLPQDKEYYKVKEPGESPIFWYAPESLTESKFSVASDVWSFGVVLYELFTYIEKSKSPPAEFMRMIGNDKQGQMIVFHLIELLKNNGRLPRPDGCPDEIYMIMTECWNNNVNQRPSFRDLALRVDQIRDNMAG
# PROTOCOL TEXT: JAK2 kinase ADP-Glo assay (Example 60)
EXPERIMENTAL ENDPOINT: IC50 (nM)

Known results for compounds:
COMPOUND	SYSTEM UNDER TEST	IC50 [nM]
CCc1cc(O)c(F)cc1-c1ccc2c(-c3nc4c([nH]3)CN(Cc3cnn(C)c3)C4)n[nH]c2c1 [MDI-221]	JAK2 (Homo sapiens)	0.363
CCc1cc(O)c(F)cc1-c1ccc2c(-c3nc4c([nH]3)CN(C(=O)N3CCN(CC)CC3)C4)n[nH]c2c1 [MDI-236]	JAK2 (Homo sapiens)	0.329
CCc1cc(O)c(F)cc1-c1cc(C)c2c(-c3nc4c([nH]3)CN(C(=O)C3CC3)C4)n[nH]c2c1 [MDI-239]	JAK2 (Homo sapiens)	1.2
CCc1cc(O)c(F)cc1-c1ccc2c(-c3nc4c([nH]3)CN(C(=O)N3CC[C@H](O)C3)C4)n[nH]c2c1 [MDI-216]	JAK2 (Homo sapiens)	0.233
CCc1cc(O)c(F)cc1-c1cc2[nH]nc(-c3nc4c([nH]3)CN(C(=O)C3CC3)C4)c2cn1 [MDI-242]	JAK2 (Homo sapiens)	28.6
CCc1cc(O)c(F)cc1-c1ccc2c(-c3nc4c([nH]3)CN(C(=O)N3CCC3)C4)n[nH]c2c1 [MDI-232]	JAK2 (Homo sapiens)	1.04
CCc1cc(O)c(F)cc1-c1ccc2c(-c3nc4c([nH]3)CN(C(=O)N3CC(C#N)C3)C4)n[nH]c2c1 [MDI-249]	JAK2 (Homo sapiens)	0.697
CCc1cc(O)c(F)cc1-c1ccc2c(-c3nc4c([nH]3)CN(C(=O)NC3CCC3)C4)n[nH]c2c1 [MDI-260]	JAK2 (Homo sapiens)	2.99

1: CCc1cc(O)c(F)cc1-c1ccc2c(-c3nc4c([nH]3)CN(C(=O)c3cccnn3)C4)n[nH]c2c1 [MDI-215]
2: CCc1cc(O)c(F)cc1-c1ccc2c(-c3nc4c([nH]3)CN(C(=O)NC3CCOC3)C4)n[nH]c2c1 (stereo not drawn) [MDI-251]
Which item exceeds the other in IC50, 1 or 2 ? Give the label of your selection.
2
(2: 0.818 nM, 1: 0.277 nM)
